test system: SNB-75 CNS; test: NCI-60 one-dose screen, 48 h (100 = growth as untreated, 0 = no growth, -100 = all killed); conditions: 10 µM unless noted
The panel holds about 83,000 compounds, 20% with a hit somewhere; the sample as a whole holds those more often. Activity calls are given as the source filed them. How the source made its calls: active means growth percent below 10; inactive means the rest.
measuredEndpoint: growth

Study these solved cases before continuing.
{"columns": ["compound", "targetUnderTest", "growth"],
 "data": [
  ["NC(=S)N/N=C/c1ccc(OC(=O)COc2ccc(Cl)cc2)cn1", "SNB-75 CNS", "44.9% (inactive)"],
  ["C=C(OC(C)=O)c1ccccc1", "SNB-75 CNS", "98% (inactive)"],
  ["CC(=O)C[n+]1ccc(C)cc1Sc1ccccc1C", "SNB-75 CNS", "76% (inactive)"],
  ["CCOc1ccc2c(c1)c(C)cc(C)[n+]2CC", "SNB-75 CNS", "71.2% (inactive)"]
]}

Documented growth of `CCOC(=O)c1cc(C)[nH]c(=O)c1C#N` : 85.7% (inactive)

Notebook: `CC(=O)NNC(=S)/N=C\C(C(=O)c1ccccc1)=C(/O)c1ccccc1` , growth read as 86.3% (inactive)

The compound `Cc1ccc(N2C(=O)c3cccc4c(N)c(S(=O)(=O)O)cc(c34)C2=O)cc1` showed growth equal to 111% (inactive)

Measured growth, `CC(=O)Nc1ncc(S(=O)(=O)c2ccc([N+](=O)[O-])cc2)s1` : 103% (inactive)

Sourced from PubChem BioAssay (NCI)
